Origin of values: patent US8642609B2

// reported Emax for each item listed
Biological target: ΔF508-CFTR (Homo sapiens, UniProt P13569, DEL508-508)
Construct: expressed in transfected cells
Sequence (P13569 with tags, fused parts or gaps DEL508-508): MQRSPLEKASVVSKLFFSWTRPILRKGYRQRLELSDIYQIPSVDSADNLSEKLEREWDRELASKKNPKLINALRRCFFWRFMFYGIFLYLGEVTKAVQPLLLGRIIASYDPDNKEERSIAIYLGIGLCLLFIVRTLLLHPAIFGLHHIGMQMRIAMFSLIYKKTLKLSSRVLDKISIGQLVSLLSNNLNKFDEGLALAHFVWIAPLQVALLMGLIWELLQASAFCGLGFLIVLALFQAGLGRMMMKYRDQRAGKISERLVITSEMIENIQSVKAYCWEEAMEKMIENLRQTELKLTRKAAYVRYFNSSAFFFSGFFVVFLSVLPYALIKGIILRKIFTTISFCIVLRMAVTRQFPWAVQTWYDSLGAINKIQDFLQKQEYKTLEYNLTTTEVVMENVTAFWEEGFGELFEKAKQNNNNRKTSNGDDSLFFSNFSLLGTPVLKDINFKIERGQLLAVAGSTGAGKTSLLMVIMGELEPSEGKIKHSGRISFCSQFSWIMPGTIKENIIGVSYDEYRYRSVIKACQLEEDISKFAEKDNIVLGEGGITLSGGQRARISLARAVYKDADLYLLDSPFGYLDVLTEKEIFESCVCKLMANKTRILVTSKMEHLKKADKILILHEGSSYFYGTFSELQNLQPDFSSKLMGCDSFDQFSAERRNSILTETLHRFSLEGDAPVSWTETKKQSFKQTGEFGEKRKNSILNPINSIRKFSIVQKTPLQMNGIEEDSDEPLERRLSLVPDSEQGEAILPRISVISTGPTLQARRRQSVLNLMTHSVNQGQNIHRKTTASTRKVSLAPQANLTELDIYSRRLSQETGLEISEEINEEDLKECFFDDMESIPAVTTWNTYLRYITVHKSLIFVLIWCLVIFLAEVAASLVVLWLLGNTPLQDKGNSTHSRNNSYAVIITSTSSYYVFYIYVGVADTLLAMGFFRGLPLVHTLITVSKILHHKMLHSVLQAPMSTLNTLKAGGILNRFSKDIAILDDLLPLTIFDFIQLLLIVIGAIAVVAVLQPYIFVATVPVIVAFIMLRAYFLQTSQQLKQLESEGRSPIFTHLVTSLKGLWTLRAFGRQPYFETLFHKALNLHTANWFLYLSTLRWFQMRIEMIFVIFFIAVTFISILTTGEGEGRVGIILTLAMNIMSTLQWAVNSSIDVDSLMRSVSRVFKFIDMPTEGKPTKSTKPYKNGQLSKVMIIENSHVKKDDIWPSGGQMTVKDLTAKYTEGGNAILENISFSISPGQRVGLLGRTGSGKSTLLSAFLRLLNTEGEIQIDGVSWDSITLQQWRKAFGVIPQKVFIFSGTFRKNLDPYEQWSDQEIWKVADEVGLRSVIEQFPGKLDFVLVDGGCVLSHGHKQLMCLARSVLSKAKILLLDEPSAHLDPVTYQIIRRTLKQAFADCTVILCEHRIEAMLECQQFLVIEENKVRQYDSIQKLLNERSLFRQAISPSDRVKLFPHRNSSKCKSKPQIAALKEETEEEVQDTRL
Experiment: Membrane potential optical assay (FRET/VIPR), identification of correction compounds
Format: cell-based
Conditions: relative efficacy
Source text: I) Membrane Potential Optical Methods for Assaying ΔF508-CFTR Modulation Properties of Compounds […] These voltage sensitive assays are based on the change in fluorescence resonant energy transfer (FRET) between the membrane-soluble, voltage-sensitive dye, DiSBAC2(3), and a fluorescent phospholipid, CC2-DMPE, which is attached to the outer leaflet of the plasma membrane and acts as a FRET donor. […]
reportedEndpoint: Emax

CC(c1nc2cc(Cl)ccc2c(=O)n1C)N1CCN(S(C)(=O)=O)CC1 (centres unmarked) [compound 108] : < 25%
COc1ccc(S(=O)(=O)N2CCN(Cc3nc4ccccc4c(=O)[nH]3)CC2)cc1 [compound 383] : < 25%
CC(c1nc2ccccc2c(=O)n1C)N(CCCNS(=O)(=O)c1ccc(Br)cc1)S(=O)(=O)c1ccc(Br)cc1 (centres unmarked) [compound 207] : 25 to 100%
COc1ccc(S(=O)(=O)N2CCN(C(C)c3nc(OC4CCC4)c4ccccc4n3)CC2)cc1 (centres unmarked) [compound 398] : > 100%
CC(c1nc2ccc(S(C)(=O)=O)cc2c(=O)n1C)N1CCN(S(=O)(=O)c2ccc(Cl)cc2)CC1 (centres unmarked) [compound 141] : 25 to 100%
CC(c1nc2ccccc2c(=O)[nH]1)N1CCN(S(=O)(=O)c2ccccc2)CC1 (centres unmarked) [compound 128] : < 25%
CCN(CC)c1nc(C(C)N2CCN(S(=O)(=O)c3ccc(OC)cc3)CC2)nc2ccccc12 (centres unmarked) [compound 195] : 25 to 100%
COc1ccc(C(=O)N2CCN(C(C)c3nc4ccccc4c(=O)n3C)CC2)cc1OC (centres unmarked) [compound 76] : < 25%
